Each record here notes measured Aqueous Solubility.
Experiment: Aqueous solubility of hydroxamic acid compounds
Type: physicochemical
Conditions: deionized water, pH 5.5, stirred overnight, filtered, 1H NMR quantification
experimental.readout: Aqueous Solubility (%)

>>> value_reported("O=C(Cc1ccccc1)NO [N-hydroxy-2-phenyl-acetamide]")
1.5
>>> value_reported("O=C(C=Cc1ccccc1)NO [Cinnamohydroxamic acid]")
0.6
>>> value_reported("COc1ccccc1C(=O)NO [2-Methoxybenzohydroxamic acid]")
1.1
>>> value_reported("CCCCCCCC(=O)NO [Octanohydroxamic acid]")
0.2
>>> value_reported("O=C(COCc1ccccc1)NO [Benzyloxyacetohydroxamic acid]")
1.8
